- subject_of_test: Proteinase-activated receptor 4 (Homo sapiens) (UniProt Q96RI0)
- Sequence (Q96RI0 whole entry): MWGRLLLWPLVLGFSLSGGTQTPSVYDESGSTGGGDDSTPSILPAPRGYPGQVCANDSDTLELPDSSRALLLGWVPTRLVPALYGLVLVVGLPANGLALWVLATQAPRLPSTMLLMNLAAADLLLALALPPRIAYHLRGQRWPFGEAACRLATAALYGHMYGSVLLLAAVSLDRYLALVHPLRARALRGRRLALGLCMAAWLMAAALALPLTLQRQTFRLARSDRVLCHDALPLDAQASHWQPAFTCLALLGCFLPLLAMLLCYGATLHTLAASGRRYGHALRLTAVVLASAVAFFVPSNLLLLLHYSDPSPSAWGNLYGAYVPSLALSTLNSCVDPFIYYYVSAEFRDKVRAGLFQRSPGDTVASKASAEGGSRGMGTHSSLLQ
- method_description: Antagonist activity at PAR4 in human platelet-rich plasma assessed as inhibition of PAR4 AP AYPGKF-NH2-induced platelet aggregation at 0.2 uM by photo-turbidimetry assay relative to control
- Type: functional
- run_parameters: filed as antagonist
Note to self: values exactly at 50% are satisfied. So inhibition at or above 50% is satisfied, below is not satisfied.

Use the examples below as a reference point.
>  <chemical_smiles>
Cc1cc(-c2nc3c(Cl)cc(OCCNC(=O)OC(C)(C)C)cc3s2)c2ncn(C)c(=O)c2c1

>  <assigned_class>
satisfied

$$$$
>  <chemical_smiles>
COCn1cnc2c(-c3nc4c(Cl)cc(OC)cc4s3)cc(C)cc2c1=O

>  <assigned_class>
not satisfied

$$$$
>  <chemical_smiles>
Cc1cc(-c2nc3c(Cl)cc(OCCNS(=O)(=O)c4ccc(Cl)cc4Cl)cc3s2)c2ncn(C)c(=O)c2c1

>  <assigned_class>
not satisfied

$$$$
>  <chemical_smiles>
CCCCc1cc(-c2nc3c(Cl)cc(OC)cc3s2)c2ncn(C)c(=O)c2c1

>  <assigned_class>
not satisfied

$$$$
>  <chemical_smiles>
CCCCc1cc(-c2nc3c(s2)CCCC3)c2ncn(CC)c(=O)c2c1

>  <assigned_class>
not satisfied

$$$$
>  <chemical_smiles>
CCc1cc(-c2nc3c(Cl)cc(OC)cc3s2)c2ncn(C)c(=O)c2c1

>  <assigned_class>
satisfied

$$$$

Exam item: decide whether the reported inhibition for Cc1cc(-c2nc3c(Cl)cc(OCCNC(=O)c4ccccc4)cc3s2)c2ncn(C)c(=O)c2c1 is at least 50%.
Marked response: satisfied

Exam item: Answer whether inhibition of Cc1cc(-c2cc3ccccc3o2)c2ncn(C)c(=O)c2c1 is greater than or equal to 50%.
Marked response: not satisfied

Exam item: Given the entry Cc1cc(-c2nc3c(s2)CCCC3)c2nc[nH]c(=O)c2c1 , answer whether its inhibition meets or surpasses 50%.
Marked response: not satisfied

Exam item: Identify whether the reported inhibition of the following compound is 50% or greater: CCOCn1cnc2c(-c3nc4c(Cl)cc(OC)cc4s3)cc(C)cc2c1=O
Marked response: satisfied

----------
Would you kindly list inhibition for each of these molecules?
- subject_of_test: Proteinase-activated receptor 4 (Homo sapiens)
- method_description: Antagonist activity at PAR4 in human platelet-rich plasma assessed as inhibition of PAR4 AP AYPGKF-NH2-induced platelet aggregation at 0.2 uM by photo-turbidimetry assay relative to control
- Format: functional
Answers are plain numbers, in %.

Answered cases to consult:
>  <chemical_smiles>
C#CCn1cnc2c(-c3nc4c(F)cc(OC)cc4s3)cc(C)cc2c1=O

>  <subject_of_test>
Proteinase-activated receptor 4 (Homo sapiens)

>  <measured_quantity>
inhibition

>  <assay_result>
27.7

$$$$
>  <chemical_smiles>
Cc1cc(-c2nc3c(Cl)cc(OCCNS(=O)(=O)c4ccccc4)cc3s2)c2ncn(C)c(=O)c2c1

>  <subject_of_test>
Proteinase-activated receptor 4 (Homo sapiens)

>  <measured_quantity>
inhibition

>  <assay_result>
17.9

$$$$
>  <chemical_smiles>
CCn1cnc2c(-c3nc4c(s3)CCCC4)cc(C)cc2c1=O

>  <subject_of_test>
Proteinase-activated receptor 4 (Homo sapiens)

>  <measured_quantity>
inhibition

>  <assay_result>
26.8

$$$$
>  <chemical_smiles>
Cc1cc(-c2ccccc2F)c2ncn(C)c(=O)c2c1

>  <subject_of_test>
Proteinase-activated receptor 4 (Homo sapiens)

>  <measured_quantity>
inhibition

>  <assay_result>
16

$$$$
>  <chemical_smiles>
Cc1cc(-c2nccs2)c2ncn(C)c(=O)c2c1

>  <subject_of_test>
Proteinase-activated receptor 4 (Homo sapiens)

>  <measured_quantity>
inhibition

>  <assay_result>
7.1

$$$$
>  <chemical_smiles>
COc1cc(Cl)c2nc(-c3cc(C)cc4c(=O)n(C)c(C)nc34)sc2c1

>  <subject_of_test>
Proteinase-activated receptor 4 (Homo sapiens)

>  <measured_quantity>
inhibition

>  <assay_result>
39.8

$$$$

Batch request: inhibition per item, same order as input.
1. CCCCc1cc(-c2nc3c(s2)CCCC3)c2ncn(C)c(=O)c2c1
2. Cc1cc(-c2cccnc2)c2ncn(C)c(=O)c2c1
3. Cc1ccc(S(=O)(=O)NCCOc2cc(Cl)c3nc(-c4cc(C)cc5c(=O)n(C)cnc45)sc3c2)cc1
4. Cn1cnc2c(-c3nc4c(s3)CCCC4)cccc2c1=O
5. COCn1cnc2c(-c3nc4c(s3)CCCC4)cc(C)cc2c1=O
6. Cc1cc(-c2nc3c(s2)CCCC3)c2nc(C)n(C)c(=O)c2c1
7. Cc1cc(-c2nc3c(Cl)cc(OCCN)cc3s2)c2ncn(C)c(=O)c2c1
8. Cc1cc(-c2cccc(Cl)c2Cl)c2ncn(C)c(=O)c2c1

Marked response:
[25.7, 1.8, 30.5, 19.8, 35.7, 17, 33.2, 34.3]

Provide inhibition values for the following items, in order.
1. Cc1cc(-c2nc3c(Cl)cc(OCCNS(=O)(=O)c4ccc(F)cc4)cc3s2)c2ncn(C)c(=O)c2c1
2. CCc1cc(-c2nc3c(s2)CCCC3)c2ncn(C)c(=O)c2c1
3. Cc1cc(-c2nc3c(Cl)cc(OCCNS(=O)(=O)c4ccc(Cl)cc4)cc3s2)c2ncn(C)c(=O)c2c1
4. COc1ccccc1-c1cc(C)cc2c(=O)n(C)cnc12
5. Cc1cc(-c2nc3c(Cl)cc(Cl)cc3s2)c2ncn(C)c(=O)c2c1

Marked response:
1: 8.7; 2: 25.7; 3: 32.3; 4: 17.4; 5: 21.3

Hello, I would appreciate it if you could give inhibition for each entry below.
1. COc1cc(F)c2nc(-c3cc(C)cc4c(=O)n(C(C)C)cnc34)sc2c1
2. Cc1cc(-c2nc3c(Cl)cc4c(c3s2)OCCO4)c2ncn(C)c(=O)c2c1
3. CCn1cnc2c(-c3nc4c(Cl)cc(OC)cc4s3)cc(C)cc2c1=O

Marked response:
[10.2, 35.7, 36.5]

----------
- subject_of_test: Proteinase-activated receptor 4 (Homo sapiens) (UniProt Q96RI0)
- method_description: Antagonist activity at PAR4 in human platelet-rich plasma assessed as inhibition of PAR4 AP AYPGKF-NH2-induced platelet aggregation at 0.2 uM by photo-turbidimetry assay relative to control
- Type: functional
Tick MET if inhibition is 20% or greater. Tick NOT MET if inhibition is less than 20%.

>  <chemical_smiles>
Cc1cc(-c2ccc(F)cc2O)c2ncn(C)c(=O)c2c1

>  <subject_of_test>
Proteinase-activated receptor 4 (Homo sapiens) (UniProt Q96RI0)

>  <assigned_class>
NOT MET

$$$$
>  <chemical_smiles>
COc1cc(Cl)c2nc(-c3cc(C)cc4c(=O)n(C(C)C)cnc34)sc2c1

>  <subject_of_test>
Proteinase-activated receptor 4 (Homo sapiens) (UniProt Q96RI0)

>  <assigned_class>
NOT MET

$$$$
>  <chemical_smiles>
COc1cc(Cl)c2nc(-c3cccc4c(=O)n(C)cnc34)sc2c1

>  <subject_of_test>
Proteinase-activated receptor 4 (Homo sapiens) (UniProt Q96RI0)

>  <assigned_class>
MET

$$$$
>  <chemical_smiles>
CCn1cnc2c(-c3nc4c(F)cc(OC)cc4s3)cc(C)cc2c1=O

>  <subject_of_test>
Proteinase-activated receptor 4 (Homo sapiens) (UniProt Q96RI0)

>  <assigned_class>
NOT MET

$$$$
>  <chemical_smiles>
CCOCn1cnc2c(-c3nc4c(s3)CCCC4)cc(C)cc2c1=O

>  <subject_of_test>
Proteinase-activated receptor 4 (Homo sapiens) (UniProt Q96RI0)

>  <assigned_class>
NOT MET

$$$$

Now consider the entry below.
Exam item: API: above_or_equal(metric=inhibition, cutoff=20%) for item COc1cc(F)c2nc(-c3cccc4c(=O)n(C)cnc34)sc2c1
Marked response: NOT MET

----------
- method_description: Metabolic stability in rat liver microsomes assessed as half life incubated for 60 mins by LC-MS/MS analysis
- Format: ADME, Microsome
measured_quantity: half-life (h)
Answers are plain numbers, in h.

>  <chemical_smiles>
Cc1cc(-c2nc3c(Cl)cc(OCCNS(=O)(=O)c4ccc(C(F)(F)F)cc4)cc3s2)c2ncn(C)c(=O)c2c1

>  <measured_quantity>
half-life

>  <assay_result>
5.38

$$$$

Exam item: Could you please provide reported half-life for COc1cc(Cl)c2nc(-c3cc(C)cc4c(=O)n(C)cnc34)sc2c1 ? Thanks!
Marked response: 0.532

----------
- subject_of_test: Proteinase-activated receptor 4 (Homo sapiens, UniProt Q96RI0)
- Sequence (Q96RI0 whole entry): as above
- method_description: Antagonist activity at human PAR4 expressed in Ga15-HEK293 cells assessed as reduction in PAR4 AP AYPGKF-NH2-induced cytosolic calcium incubated for 24 hrs by FLIPR - calcium mobilization assay
measured_quantity: IC50 (nM)
Answers are plain numbers, in nM.

>  <chemical_smiles>
Cc1cc(-c2nc3c(Cl)cc(OCCNS(=O)(=O)c4ccc(C(F)(F)F)cc4)cc3s2)c2ncn(C)c(=O)c2c1

>  <measured_quantity>
IC50

>  <units_text>
nM

>  <assay_result>
1.2

$$$$
>  <chemical_smiles>
COc1cc(F)c2nc(-c3cc(C)cc4c(=O)n(C)cnc34)sc2c1

>  <measured_quantity>
IC50

>  <units_text>
nM

>  <assay_result>
3.2

$$$$
>  <chemical_smiles>
COc1cc(Cl)c2nc(-c3cc(C)cc4c(=O)n(C)cnc34)sc2c1

>  <measured_quantity>
IC50

>  <units_text>
nM

>  <assay_result>
0.53

$$$$
>  <chemical_smiles>
Cc1cc(-c2nc3c(s2)CCCC3)c2ncn(C)c(=O)c2c1

>  <measured_quantity>
IC50

>  <units_text>
nM

>  <assay_result>
5.7

$$$$

For the next question, use this molecule.
Exam item: Answer with the recorded IC50 for the molecule listed here: CCc1cc(-c2nc3c(Cl)cc(OC)cc3s2)c2ncn(C)c(=O)c2c1
Marked response: 6.8
